test system: Bacillus cereus; assay: Antibacterial activity against Bacillus cereus NCTC 14579 assessed as growth inhibition after 24 hrs by Kirby-Bauer disc diffusion method relative to ampicillin; type: functional
The molecules listed here are annotated with their Activity_index.
Hi! Could you send only the number? It should be in %, unit omitted.

Use the examples below as a reference point.
molecule	test.system	Activity_index (%)
C/C(=N/NC(=O)/C(C#N)=C1/SC=C(c2ccccc2)N1c1ccccc1)c1ccc(N2CCOCC2)cc1	Bacillus cereus	17.39
C/C(=N\N=C1/N=C2OC(=O)C=C2S1)c1ccc(N2CCOCC2)cc1	Bacillus cereus	17.39
C/C(=N\N=C(\N)S)c1ccc(N2CCOCC2)cc1	Bacillus cereus	17.39
C/C(=N/c1nc(-c2ccccc2)cs1)c1ccc(N2CCOCC2)cc1	Bacillus cereus	17.39
CC(=O)N(C(C)=O)c1nc(-c2ccc(N3CCOCC3)cc2)cs1	Bacillus cereus	17.39
C/C(=N/NC(=O)c1sc(=S)n(-c2ccc3ccccc3c2)c1N)c1ccc(N2CCOCC2)cc1	Bacillus cereus	13.04
C/C(=N\NC1=NC(=O)CS1)c1ccc(N2CCOCC2)cc1	Bacillus cereus	17.39
C/C(=N\Nc1nc(-c2ccccc2)cs1)c1ccc(N2CCOCC2)cc1	Bacillus cereus	17.39
C/C(=N/NC(=O)c1sc(=S)n(-c2ccccc2)c1N)c1ccc(N2CCOCC2)cc1	Bacillus cereus	13.04
C/C(=N\NC1=NC(=O)C(C)S1)c1ccc(N2CCOCC2)cc1 (configuration not stated)	Bacillus cereus	21.74

*Q* For the molecule shown here, C/C(=N\NC1=NCC(=O)S1)c1ccc(N2CCOCC2)cc1 , give the reported Activity_index.
*A* 16.67

* * *

tested on: Rattus norvegicus; experiment: Antiinflammatory activity in albino Wistar rat assessed as inhibition of carrageenan-induced paw oedema at 50 mg/kg, po administered 1 hr prior to carrageenan challenge measured at 4 hrs by plethysmometeric analysis relative to control; assay type: functional
readout: inhibition in vivo at 50 mg/kg (%)
Hi! Could you send only the number? It should be in %, unit omitted.

C/C(=N\Nc1nc(-c2ccccc2)cs1)c1ccc(N2CCOCC2)cc1 79.1

Moving on to another compound below.
*Q* For the compound shown here, Nc1nc(-c2ccc(N3CCOCC3)cc2)cs1 , give the reported inhibition in vivo at 50 mg/kg.
*A* 86.8

* * *

test system: Bacillus cereus; assay: Antibacterial activity against Bacillus cereus NCTC 14579 assessed as growth inhibition after 24 hrs by Kirby-Bauer disc diffusion method relative to ampicillin; format: functional
readout: Activity_index (%)
Hi! Could you send only the number? It should be in %, unit omitted.

Cc1ccc(/C=N/c2nc(-c3ccc(N4CCOCC4)cc3)cs2)cc1 17.39
C/C(=N\NC(=O)CC#N)c1ccc(N2CCOCC2)cc1 17.39
C/C(=N\Nc1nc(C)cs1)c1ccc(N2CCOCC2)cc1 13.04
CC1=C(O)N(c2ccccc2)/C(=C(/C#N)C(=O)N/N=C(/C)c2ccc(N3CCOCC3)cc2)S1 13.04
Nc1nc(-c2ccc(N3CCOCC3)cc2)cs1 17.39

Moving on to another compound below.
*Q* For the compound shown here, C/C(=N\NC1=NC(=N)CS1)c1ccc(N2CCOCC2)cc1 , give the reported Activity_index.
*A* 17.39

* * *

system: Rattus norvegicus; assay: Antiinflammatory activity in albino Wistar rat assessed as inhibition of carrageenan-induced paw oedema at 50 mg/kg, po administered 1 hr prior to carrageenan challenge measured at 4 hrs by plethysmometeric analysis relative to control; type: functional
Outcome label depends on inhibition in vivo at 50 mg/kg relative to 80%: at/above gives TRUE, below gives FALSE.

C/C(=N\N=C(\N)S)c1ccc(N2CCOCC2)cc1 TRUE
C/C(=N\N=C1/N=C2OC(=O)C=C2S1)c1ccc(N2CCOCC2)cc1 TRUE

As a next step, examine the molecule that follows.
*Q* Check if inhibition in vivo at 50 mg/kg >= 80% (inclusive). Item: C/C(=N\NC1=NC(=O)CS1)c1ccc(N2CCOCC2)cc1
*A* FALSE
